Cited source: ChEMBL document CHEMBL1201862

- System: SK-MEL-5
- ASSAY_PROCEDURE: NCI tumour cell line growth inhibition, 48 h
Activity calls are given as the source filed them. Rule as the data show it: active = GI50 up to about 1.1 µM and inactive = higher.
// one of yes (1) = active, no (0) = inactive, no free text

Below are worked cases with known answers.
[
  {
    "MOLECULE": "C=C(C1=CC(=O)C(C)(C)O1)[C@@H]1CC=C([C@@H]2CC[C@H]3[C@@]2(C)CC[C@H]2C(C)(C)C(=O)[C@H](O)C[C@]32C)[C@H](O)O1",
    "CATEGORY": "no (0)"
  },
  {
    "MOLECULE": "Nc1cccnc1NCC1(CO)CCCC1",
    "CATEGORY": "no (0)"
  },
  {
    "MOLECULE": "O=C1CSc2nc3ccccc3n2/C=N\\N1",
    "CATEGORY": "no (0)"
  },
  {
    "MOLECULE": "Cc1cccc2nc3cccc(C(=O)NCCC[N+](C)(CCCNC(=O)c4cccc5nc6cccc(C)c6nc45)Cc4c([N+](=O)[O-])ncn4C)c3nc12",
    "CATEGORY": "no (0)"
  },
  {
    "MOLECULE": "O=C(CC(C(=O)c1cccs1)c1ccc2c(c1)OCO2)c1ccc(Br)cc1 (centres undefined)",
    "CATEGORY": "no (0)"
  }
]

Tell me the assay call for COc1ccc(OC2OC(COC(c3ccccc3)(c3ccc(OC)cc3)c3ccc(OC)cc3)C(O)C(O)C2O)cc1 (centres undefined) please. no (0)

`CNC(=O)OCc1c(COC(=O)NC)c(-c2ccc(Cl)c(Cl)c2)n2c1SCC2` , same question. no (0)

What about this molecule? `COc1c(OC)c(OC)c(C(=O)/C=C/c2ccccc2)c(OC)c1OC` no (0)

Note, next up: CCOC(=O)C1=C(C(=O)OCC)C2(c3ccccc3)N(O1)c1ccccc1C2(C)C (centres undefined) no (0)

And the next one, NC(CCC(=O)NC(CSC(=O)N(O)c1ccc(Cl)cc1)C(=O)NCC(=O)O)C(=O)O (centres undefined) ? yes (1)

How about CCCCCCCCCCCCC(=O)OC(c1cnco1)c1nc(C(O)CC(O)C(O)C(C)O)co1 (centres undefined) ? yes (1)

O=c1[nH]c(=O)n(C2CC(O)C(CO)O2)cc1C(F)(C(F)(F)F)C(F)(F)F (centres undefined) , same question. no (0)

// repeat for `O=C(O)CCC(=O)C(=O)O` and report no (0)

Would you mind doing O=[N+]([O-])c1ccc(C2Nn3c(nnc3-c3cccc([N+](=O)[O-])c3)S2)cc1 (centres undefined) as well? no (0)

What about `C=CCN(c1cc(OCc2ccccc2)c(NC(C)=O)cc1[N+](=O)[O-])S(C)(=O)=O` ? no (0)

Also need CCOC(OC1=C(C#N)CCCC1)C(CC)[Se]c1ccccc1 (centres undefined) , thanks. no (0)

Let us now turn to `Cc1ccc(/C=N/Nc2ccc3ccccc3n2)s1` no (0)

Cool, now `COc1ccc(S(=O)(=O)Nc2ccc(-c3csc(N4C(=O)/C(=C/C=C\c5ccccc5)N=C4c4ccccc4)n3)cc2)cc1Cl` no (0)

Param item: `O=c1[nH]c2cc3cccnc3c(Cl)c2nc1CBr` no (0)

* * *

GI50 by entry:
- Tested on: UACC-62
- ASSAY_PROCEDURE: NCI tumour cell line growth inhibition, 48 h
Active and inactive are the calls of the source. Cut-off read from the data, not from the text of the source: active = GI50 up to about 1.1 µM and inactive = higher.

Worked examples follow.
[
  {
    "COMPOUND": "OCC(CCc1ccccc1I)C1=CCC2(CC1)OCCO2 (stereo unspecified)",
    "GI50": "16.4 µM (inactive)"
  },
  {
    "COMPOUND": "NS(=O)(=O)c1ccc(NC(=O)CC(=O)Nc2ccc(S(N)(=O)=O)cc2)cc1",
    "GI50": "> 100 µM (inactive)"
  },
  {
    "COMPOUND": "COC(=O)C(=O)C(C(=O)C=C(C)C)C(=O)C(=O)Nc1ccc(C)cc1C (stereo unspecified)",
    "GI50": "> 100 µM (inactive)"
  }
]

Param readout = GI50; param system = UACC-62; param query = `Cc1cc(N2CCOCC2)nc2ccc(Cc3ccc4nc(N5CCOCC5)cc(C)c4c3)cc12` ; response: value 45.8 µM (inactive)

// query: `O=C1C=CC2=[N+]([O-])C(c3ccccc3)(c3ccccc3)/C(=N\c3ccccc3)C2=C1` 2.1 µM (inactive)

Ok, now `C[n+]1c2ccccc2n2c3ccccc3c(NCCc3ccccn3)c(C#N)c21` 2.53 µM (inactive)

Quick one: `NCCc1c[nH]c2ccc(OC(=O)C(=O)O)cc12` > 100 µM (inactive)

Same again, this time with `COc1cc2c(/C=C3/C(=O)N(c4ccccc4)c4ccccc43)c(Cl)[nH]c2cc1C` 2.93 µM (inactive)
